B1: MFF (parent)
chain: MAEISRIQYEMEYTEGISQRMRVP

# Variants of: B1
# ASSAY METHOD TEXT: protein stability index of a GFP-peptide fusion (GPS, HEK-293T) (PSI 1-6); higher = more stable;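 further: lentivirally expressed fusions sorted by FACS into six bins by GFP to DsRed ratio, PSI derived from sequencing read proportions per bin multiplied by bin number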
# RUN CONDITIONS: c terminus: a fixed tail appended
MEASUREMENT TYPE: protein stability index
Answers are plain numbers.

P24C | 1.93
Y13M | 2.67
Q8F | 1.58
I17Q | 3.76
Q19Y | 1.81

// input: 4 variants below; output: protein stability index for each
1. M11L
2. E12G
3. Y9H
4. Q19A

1: 2.37; 2: 2.26; 3: 3.09; 4: 2.47
